Test system: Daudi;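 further: growth inhibition of Daudi cells, read out by a viability assay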
method: cells
Format: functional, cell-based, Homo sapiens
details: daudi
Description: SANGER: Inhibition of human Daudi cell growth in a cell viability assay.
Where a SMILES comes first, the peptide text is derived from it. The star is where a group is joined. Cbz = O=C(OCc1ccccc1)*
measurement.label: IC50

Record lookup: for Daudi, what IC50 belongs to CC(C)C[C@@H](C=O)NC(=O)[C@H](CC(C)C)NC(=O)[C@H](CC(C)C)NC(=O)OCc1ccccc1 [MG-132] (Cbz-Leu-Leu-Leu-aldehyde) ? > 1 µM

====

System: HT-3;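 further: growth inhibition measured with a cell viability readout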
method: cells
Type: functional, cell-based
details: Homo sapiens
Description: SANGER: Inhibition of human HT-3 cell growth in a cell viability assay.
pIC50: −log10 of the molar value.
measurement.label: pIC50

CC1=C(/C=C/C(C)=C/C=C/C(C)=C/C(=O)O)C(C)(C)CCC1 :: < 5.00
NC(=O)c1ccc(N(C(N)=O)c2c(F)cccc2F)nc1-c1ccc(F)cc1F :: < 5.70
COc1ccc(-c2cc3nccn3c(Nc3ncccc3C(N)=O)n2)cc1OC :: < 5.10
NC(=O)Nc1cc(-c2cccc(F)c2)sc1C(=O)N[C@H]1CCCNC1 :: 6.31
O=C(NCCCNc1nc(Nc2cccc(NC(=O)N3CCCC3)c2)ncc1I)c1cccs1 :: < 5.30

Next up:
Dear colleague, I am looking for the recorded pIC50 of the following compound: CC1(C)CCC(c2ccc(Cl)cc2)=C(CN2CCN(c3ccc(C(=O)NS(=O)(=O)c4ccc(N[C@H](CCN5CCOCC5)CSc5ccccc5)c(S(=O)(=O)C(F)(F)F)c4)cc3)CC2)C1 < 5.70

====

System: SK-LMS-1;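 further: growth inhibition of human SK-LMS-1 cells, read out with a cell viability assay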
method: cells
Format: functional, cell-based, Homo sapiens
details: Homo sapiens, SK-LMS-1
Description: SANGER: Inhibition of human SK-LMS-1 cell growth in a cell viability assay.
pIC50: −log10 of the molar value.
measurement.label: pIC50

COc1ccc(-c2cc3nccn3c(Nc3ncccc3C(N)=O)n2)cc1OC :: < 5.10
NC(=O)c1cccc(-c2cc(Nc3ccc(OC(F)(F)F)cc3)ncn2)c1 :: < 5.89
Nc1ccccc1NC(=O)c1ccc(CNC(=O)OCc2cccnc2)cc1 [ENTINOSTAT] :: < 5.30
Cc1ccc(C(=O)Nc2ccc(CN3CCN(C)CC3)c(C(F)(F)F)c2)cc1C#Cc1cnc2cccnn12 [PONATINIB] :: < 6.29

May I ask what pIC50 has been recorded for OC[C@H](Cc1ccccc1)Nc1nc(Oc2ccc3c(c2)CCC3)nc2c1ncn2Cc1ccc(-c2ccccc2)cc1 ? 5.53

What measured pIC50 goes with COc1ccc(N(C(=O)Oc2c(C)cccc2C)c2ccnc(Nc3ccc(N4CCN(C)CC4)cc3)n2)c(OC)c1 ? < 5.29

====

Tested on: ATN-1
method: cells
Assay type: functional, cell-based, Homo sapiens
details: Homo sapiens, ATN-1
Description: SANGER: Inhibition of human ATN-1 cell growth in a cell viability assay.
measurement.label: IC50

COC(=O)[C@H](CCSC)NC(=O)c1ccc(NC[C@@H](N)CS)cc1-c1ccccc1 :: > 1020 nM

Any idea what its IC50 is? The compound is O=C(NCCCNc1nc(Nc2cccc(NC(=O)N3CCCC3)c2)ncc1I)c1cccs1 1370 nM

Data request, read-out IC50, for C=CC(=O)N1CCCC(Nc2nc(Nc3ccc(N(C)C(=O)CC)cc3)nc3[nH]cnc23)C1 (stereo not drawn) > 10200 nM

====

Test system: D-502MG
method: cells
Type: functional, cell-based, Homo sapiens
details: d-502mg
Description: SANGER: Inhibition of human D-502MG cell growth in a cell viability assay.
pIC50: −log10 of the molar value. Where a SMILES comes first, the peptide text is derived from it. The star is where a group is joined. Cbz = O=C(OCc1ccccc1)*
measurement.label: pIC50

Notebook: pull reported pIC50 for D-502MG, entry CC(C)C[C@@H](C=O)NC(=O)[C@H](CC(C)C)NC(=O)[C@H](CC(C)C)NC(=O)OCc1ccccc1 [MG-132] (Cbz-Leu-Leu-Leu-aldehyde) < 6.00

====

Test system: NCI-H1755;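 further: cell viability readout used to measure growth inhibition of NCI-H1755 cells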
method: cells
Assay type: functional, cell-based
details: Homo sapiens
Description: SANGER: Inhibition of human NCI-H1755 cell growth in a cell viability assay.
measurement.label: IC50

# count of solved cases: 6
NC(=O)Nc1cc(-c2cccc(F)c2)sc1C(=O)N[C@H]1CCCNC1 [AZD-7762] :: 273 nM
CO[C@@H]1[C@H](N(C)C(=O)c2ccccc2)C[C@H]2O[C@]1(C)n1c3ccccc3c3c4c(c5c6ccccc6n2c5c31)C(=O)NC4 [MIDOSTAURIN] :: 62.7 nM
C/C(=C\c1csc(C)n1)[C@@H]1C[C@@H]2O[C@]2(C)CCC[C@H](C)[C@H](O)[C@@H](C)C(=O)C(C)(C)[C@@H](O)CC(=O)O1 [PATUPILONE] :: > 32 nM
CC1=C(/C=C/C(C)=C/C=C/C(C)=C/C(=O)O)C(C)(C)CCC1 [TRETINOIN] :: > 10000 nM
COC(=O)[C@H](CCSC)NC(=O)c1ccc(NC[C@@H](N)CS)cc1-c1ccccc1 :: > 1020 nM
Cc1ccc(-n2nc(C(C)(C)C)cc2NC(=O)Nc2ccc(OCCN3CCOCC3)c3ccccc23)cc1 [DORAMAPIMOD] :: > 10000 nM

Recorded IC50 for CS(=O)(=O)N1CCN(Cc2cc3nc(-c4cccc5[nH]ncc45)nc(N4CCOCC4)c3s2)CC1 [PICTILISIB] , please? > 4000 nM

====

Listing: pIC50 of selected compounds
Tested on: COLO-320-HSR;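 further: growth inhibition of COLO-320-HSR cells, determined with a cell viability assay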
method: cells
Type: functional, cell-based, Homo sapiens
details: Homo sapiens, COLO-320-HSR
Description: SANGER: Inhibition of human COLO-320-HSR cell growth in a cell viability assay.
Lab note — pIC50 values are minus log10 of concentrations in M.

Known pIC50 results, listed for orientation:
C/C(=C\c1csc(C)n1)[C@@H]1C[C@@H]2O[C@]2(C)CCC[C@H](C)[C@H](O)[C@@H](C)C(=O)C(C)(C)[C@@H](O)CC(=O)O1 :: 8.28
COc1ccc(-c2cc3nccn3c(Nc3ncccc3C(N)=O)n2)cc1OC :: 5.54
Nc1ccccc1NC(=O)c1ccc(CNC(=O)OCc2cccnc2)cc1 :: 5.54

// pIC50 lookup, key: CCCCCCCCCCCC1=C(O)C(=O)C=C(O)C1=O 4.77

====

System: COLO-792
method: cells
Assay type: functional, cell-based
details: Homo sapiens
Description: SANGER: Inhibition of human COLO-792 cell growth in a cell viability assay.
pIC50: −log10 of the molar value.
Some compounds, each annotated with its measured pIC50.

NC(=O)Nc1cc(-c2cccc(F)c2)sc1C(=O)N[C@H]1CCCNC1 [AZD-7762] :: < 5.70
COC(=O)[C@H](CCSC)NC(=O)c1ccc(NC[C@@H](N)CS)cc1-c1ccccc1 :: < 5.99
NC(=O)c1ccc(N(C(N)=O)c2c(F)cccc2F)nc1-c1ccc(F)cc1F [VX-702] :: < 5.70
CC1(C)CCC(c2ccc(Cl)cc2)=C(CN2CCN(c3ccc(C(=O)NS(=O)(=O)c4ccc(N[C@H](CCN5CCOCC5)CSc5ccccc5)c(S(=O)(=O)C(F)(F)F)c4)cc3)CC2)C1 [NAVITOCLAX] :: 5.92
CS(=O)(=O)N1CCN(Cc2cc3nc(-c4cccc5[nH]ncc45)nc(N4CCOCC4)c3s2)CC1 [PICTILISIB] :: < 5.40

What measured pIC50 goes with O=S(=O)(O)c1ccc2cc(/N=N/c3cc(S(=O)(=O)O)c4cccnc4c3O)ccc2c1 ? < 4.80

====

Reported IC50 values for a set of compounds
Tested on: D-263MG
method: cells
Type: functional, cell-based, Homo sapiens
details: Homo sapiens, D-263MG
Description: SANGER: Inhibition of human D-263MG cell growth in a cell viability assay.

Cc1ccc(C(=O)Nc2ccc(CN3CCN(C)CC3)c(C(F)(F)F)c2)cc1C#Cc1cnc2cccnn12 :: > 0.512 µM
COC(=O)[C@H](CCSC)NC(=O)c1ccc(NC[C@@H](N)CS)cc1-c1ccccc1 :: > 1.02 µM
CN(C)CCOc1ccc(-c2nc(-c3ccncc3)c(-c3ccc4c(c3)CC/C4=N\O)[nH]2)cc1 :: > 5 µM

What measured IC50 goes with CCCCCCCCCCCC1=C(O)C(=O)C=C(O)C1=O ? > 32 µM

Please report the recorded IC50 for O=C1NC(=O)c2c1c(-c1ccccc1Cl)cc1[nH]c3ccc(O)cc3c21 . > 2 µM

Given the compound NC(=O)c1cccc(-c2cc(Nc3ccc(OC(F)(F)F)cc3)ncn2)c1 , what is its reported IC50? > 1.28 µM

Entry O=C(NCCCNc1nc(Nc2cccc(NC(=O)N3CCCC3)c2)ncc1I)c1cccs1 has what IC50? 2.38 µM

Please look up its IC50: CC1(C)CCC(c2ccc(Cl)cc2)=C(CN2CCN(c3ccc(C(=O)NS(=O)(=O)c4ccc(N[C@H](CCN5CCOCC5)CSc5ccccc5)c(S(=O)(=O)C(F)(F)F)c4)cc3)CC2)C1 > 2 µM

Could you tell me which IC50 is on file for NC(=O)Nc1cc(-c2cccc(F)c2)sc1C(=O)N[C@H]1CCCNC1 ? 0.909 µM

I have this compound here, C[C@@H](Oc1cc(-c2cnn(C3CCNCC3)c2)cnc1N)c1c(Cl)ccc(F)c1Cl , and I need its recorded IC50. > 2 µM

Look up IC50 for this compound: Cc1cc(N2CCOCC2)cc2[nH]c(-c3c(NC[C@@H](O)c4cccc(Cl)c4)cc[nH]c3=O)nc12 > 5.12 µM
